experiment: self-splicing fitness, log relative to wild type (ln ratio); higher = more splicing; Tetrahymena group I intron in knt gene, E. coli kanamycin selection, DiMSum; sequences stand for … in CUCUCU…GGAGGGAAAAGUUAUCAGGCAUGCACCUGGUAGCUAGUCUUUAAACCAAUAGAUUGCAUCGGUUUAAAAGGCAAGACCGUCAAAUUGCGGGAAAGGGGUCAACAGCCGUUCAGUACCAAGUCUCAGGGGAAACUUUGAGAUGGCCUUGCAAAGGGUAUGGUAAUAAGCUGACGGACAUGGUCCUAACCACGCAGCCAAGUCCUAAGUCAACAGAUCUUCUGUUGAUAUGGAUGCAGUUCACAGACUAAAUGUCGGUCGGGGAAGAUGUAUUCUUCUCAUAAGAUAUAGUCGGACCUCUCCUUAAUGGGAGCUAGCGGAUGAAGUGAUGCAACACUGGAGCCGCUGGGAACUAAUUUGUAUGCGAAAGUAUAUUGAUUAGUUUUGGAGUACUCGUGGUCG; conditions: 37 °C;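 note: selection with 25 µg/mL kanamycin versus none on LB agar overnight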
Each record's self-splicing fitness (ln) is compared with lo = under -2, med = from -2 up to -0.8, hi = -0.8 and over to give its class.

| Input sequence | Category |
| --- | --- |
| GGCAAGCAAUAUUACGUUAA | hi |
| CCAUAGCAAUAUUACGGCAC | med |
| CUAAAGCAAUAUUACGCUUG | med |

stdin: Note: place this sequence into its band. Item: AACGAGCAAUAUUACGGGCU
stdout: lo

stdin: Now consider CUGGAGCAAUAUUACGUACA .
stdout: med

stdin: Try this sequence too: AGCGAGCAAUAUUACGGCCC
stdout: hi

stdin: Ok, now ACUUAGCAAUAUUACGUAGA
stdout: med

stdin: Repeat with AUGUAGCAAUAUUACGAUAG
stdout: lo

stdin: For AGAUAGCAAUAUUACGGCGA then?
stdout: hi

stdin: Same question, UAUUAGCAAUAUUACGGCUU this time
stdout: hi

stdin: Likewise for GUAUAGCAAUAUUACGACUG ?
stdout: lo
